Known EC50 of a selection of compounds
- SYSTEM UNDER TEST: Stimulator of interferon genes protein (Homo sapiens, UniProt Q86WV6)
- ASSAY METHOD TEXT: Agonist activity at STING in human THP1-Dual cells assessed as ISG activation incubated for 24 hrs by Quanti-luc reagent based assay
- Type: cell-based
- Sequence (Q86WV6 whole entry): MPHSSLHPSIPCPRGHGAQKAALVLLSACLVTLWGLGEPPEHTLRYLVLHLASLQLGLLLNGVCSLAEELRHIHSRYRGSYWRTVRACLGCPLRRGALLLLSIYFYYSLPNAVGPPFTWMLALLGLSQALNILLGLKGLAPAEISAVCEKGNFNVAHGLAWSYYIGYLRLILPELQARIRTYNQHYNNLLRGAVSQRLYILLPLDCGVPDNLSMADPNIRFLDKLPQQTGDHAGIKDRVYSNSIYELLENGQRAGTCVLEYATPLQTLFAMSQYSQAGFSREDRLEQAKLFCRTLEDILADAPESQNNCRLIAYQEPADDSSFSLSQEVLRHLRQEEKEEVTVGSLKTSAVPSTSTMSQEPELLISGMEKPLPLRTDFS
Answer format: numeric, µM implied, no suffix.

q: In one line, give reported EC50 of the entry "CCn1nc(C)cc1C(=O)Nc1nc2cc(C(N)=O)sc2n1C/C=C/Cn1c(NC(=O)c2cc(C)nn2CC)nc2cc(C(N)=O)cc(OC(C)C)c21" .
a: 5.82

More entries:
q: In one line, give reported EC50 of the entry "CCn1nc(C)cc1C(=O)Nc1nc2cc(C(N)=O)sc2n1C/C=C/Cn1c(NC(=O)c2cc(C)nn2CC)nc2cc(C(N)=O)cc(OCC3CC3)c21" .
a: 0.28

q: In one line, give reported EC50 of the entry "CCn1nc(C)cc1C(=O)Nc1nc2cc(C(N)=O)sc2n1C/C=C/Cn1c(NC(=O)c2cc(C)nn2CC)nc2cc(C(N)=O)cc(OCCCN3CCOCC3)c21" .
a: 0.0012

q: In one line, give reported EC50 of the entry "CCn1nc(C)cc1C(=O)Nc1nc2cc(C(N)=O)sc2n1C/C=C/Cn1c(NC(=O)c2cc(C)nn2CC)nc2cc(C(N)=O)cc(OC3COC3)c21" .
a: 1.56

q: In one line, give reported EC50 of the entry "CCn1nc(C)cc1C(=O)Nc1nc2cc(C(N)=O)sc2n1C/C=C/Cn1c(NC(=O)c2cc(C)nn2CC)nc2cc(C(N)=O)cc(O[C@H]3CCOC3)c21" .
a: 1.86

----------
- ASSAY METHOD TEXT: Half life in BALB/c mouse at 1 mg/kg, iv measured up to 24 hrs by UPLC-MS/MS analysis
- Assay type: ADME, organism-based
- MEASUREMENT SETUP: in vivo
Known half-life of a selection of molecules
Answer format: numeric, h implied, no suffix.

q: In one line, give reported half-life of the entry "CCn1nc(C)cc1C(=O)Nc1nc2cc(C(N)=O)sc2n1C/C=C/Cn1c(NC(=O)c2cc(C)nn2CC)nc2cc(C(N)=O)cc(OCCCN3CCOCC3)c21" .
a: 1.62

Next item in the queue.
q: In one line, give reported half-life of the entry "CCn1nc(C)cc1C(=O)Nc1nc2cc(C(N)=O)cc(OC)c2n1C/C=C/Cn1c(NC(=O)c2cc(C)nn2CC)nc2cc(C(N)=O)cc(OCCCN3CCOCC3)c21" .
a: 1.14

----------
- SYSTEM UNDER TEST: Stimulator of interferon genes protein (Homo sapiens, UniProt Q86WV6)
- ASSAY METHOD TEXT: Inhibition of human wild type STING
READOUT KIND: IC50 (µM)
Answer format: numeric, µM implied, no suffix.

q: In one line, give reported IC50 of the entry "CCn1nc(C)cc1C(=O)/N=c1\[nH]c2cc(C(N)=O)ccc2n1C[C@@H](O)c1ccccc1" .
a: 1.4

----------
- ASSAY METHOD TEXT: Agonist activity at human STING R232H mutant
READOUT KIND: pEC50
In plain terms, pEC50 is the concentration in mol/L turned into minus its base-10 logarithm.

q: In one line, give reported pEC50 of the entry "CCn1nc(C)cc1C(=O)/N=c1\[nH]c2cc(C(N)=O)cc(OC)c2n1C/C=C/Cn1/c(=N/C(=O)c2cc(C)nn2CC)[nH]c2cc(C(N)=O)cc(OCCCN3CCOCC3)c21" .
a: 6.70

----------
- SYSTEM UNDER TEST: Stimulator of interferon genes protein (Homo sapiens)
- ASSAY METHOD TEXT: Binding affinity to His6-tagged human wild type STING R232 variant by homogeneous time-resolved fluorescence assay
- Sequence (Q86WV6 whole entry, looked up, change not shown): as the sequence (Q86WV6 whole entry) above
READOUT KIND: IC50 (nM)
Answer format: numeric, nM implied, no suffix.

q: In one line, give reported IC50 of the entry "CCn1nc(C)cc1C(=O)Nc1nc2cc(C(N)=O)sc2n1C/C=C/Cn1c(NC(=O)c2cc(C)nn2CC)nc2cc(C(N)=O)cc(OCCCN3CCOCC3)c21" .
a: 0.6

----------
Known pEC50 of a selection of compounds
- SYSTEM UNDER TEST: Stimulator of interferon genes protein (Homo sapiens, UniProt Q86WV6)
- ASSAY METHOD TEXT: Agonist activity at STING (unknown origin)
In plain terms, pEC50 is the concentration in mol/L turned into minus its base-10 logarithm.

q: In one line, give reported pEC50 of the entry "Nc1ncnc2c1ncn2[C@@H]1O[C@@H]2COP(=O)(O)O[C@H]3[C@@H](O)[C@H](n4cnc5c(N)ncnc54)O[C@@H]3COP(=O)(O)O[C@H]2[C@H]1O" .
a: 7.29

Next item in the queue.
q: In one line, give reported pEC50 of the entry "O=C(c1ccc([N+](=O)[O-])cc1)N1CCc2cc(S(=O)(=O)N3C[C@@H](c4ccccc4)NC3=O)ccc21" .
a: 6.74

----------
- SYSTEM UNDER TEST: Stimulator of interferon genes protein (Homo sapiens, UniProt Q86WV6)
- ASSAY METHOD TEXT: Agonist activity at STING in human THP-1 cells
- Type: cell-based
READOUT KIND: EC50 (nM)
Answer format: numeric, nM implied, no suffix.

q: Name the recorded EC50 of "O=C(Nc1cc(F)c(F)cc1C(=O)O)c1ccc(N2C=CNC2)nn1" , assay system Stimulator of interferon genes protein (Homo sapiens, UniProt Q86WV6).
a: 2100

----------
- SYSTEM UNDER TEST: Stimulator of interferon genes protein (Mus musculus, UniProt Q3TBT3)
- Sequence (Q3TBT3 whole entry): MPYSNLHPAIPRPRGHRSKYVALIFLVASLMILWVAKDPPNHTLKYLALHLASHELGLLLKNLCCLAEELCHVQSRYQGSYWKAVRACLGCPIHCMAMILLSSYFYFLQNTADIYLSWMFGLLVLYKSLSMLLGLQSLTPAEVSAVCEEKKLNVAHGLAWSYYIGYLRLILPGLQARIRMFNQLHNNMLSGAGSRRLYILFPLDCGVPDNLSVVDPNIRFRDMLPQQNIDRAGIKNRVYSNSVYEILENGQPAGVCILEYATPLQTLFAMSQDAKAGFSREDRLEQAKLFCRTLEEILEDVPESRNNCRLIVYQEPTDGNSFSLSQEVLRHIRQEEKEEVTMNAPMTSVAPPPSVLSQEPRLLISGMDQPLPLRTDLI
- ASSAY METHOD TEXT: Agonist activity at STING in mouse RAW-Lucia ISG cells assessed as ISG activation incubated for 24 hrs by Quanti-luc reagent based assay
pEC50: −log10 of the molar value.
READOUT KIND: pEC50

q: In one line, give reported pEC50 of the entry "CCn1nc(C)cc1C(=O)Nc1nc2cc(C(N)=O)sc2n1C/C=C/Cn1c(NC(=O)c2cc(C)nn2CC)nc2cc(C(N)=O)cc(OCC3CC3)c21" .
a: < 4.00

q: In one line, give reported pEC50 of the entry "CCn1nc(C)cc1C(=O)Nc1nc2cc(C(N)=O)sc2n1C/C=C/Cn1c(NC(=O)c2cc(C)nn2CC)nc2cc(C(N)=O)cc(OC3COC3)c21" .
a: < 4.00

More entries:
q: In one line, give reported pEC50 of the entry "CCn1nc(C)cc1C(=O)Nc1nc2cc(C(N)=O)sc2n1C/C=C/Cn1c(NC(=O)c2cc(C)nn2CC)nc2cc(C(N)=O)cc(O[C@H]3CCOC3)c21" .
a: < 4.00

----------
- SYSTEM UNDER TEST: Stimulator of interferon genes protein (Mus musculus)
- ASSAY METHOD TEXT: Agonist activity at STING in mouse RAW-Lucia ISG cells assessed as fold change in ISG activation at 50 uM incubated for 24 hrs by Quanti-luc reagent based assay relative to control
- Type: cell-based
- MEASUREMENT SETUP: filed as agonist
Known fold change (FC) of a selection of compounds
Just the number, please, no unit attached.

Record excerpt, results attached:
q: In one line, give reported fold change (FC) of the entry "CCn1nc(C)cc1C(=O)Nc1nc2cc(NC(=O)CN)ccc2n1CCCCn1c(NC(=O)c2cc(C)nn2CC)nc2cc(C(N)=O)cc(OCCCN3CCOCC3)c21" .
a: 1.39

q: In one line, give reported fold change (FC) of the entry "CCn1nc(C)cc1C(=O)Nc1nc2cc(C(N)=O)sc2n1C/C=C/Cn1c(NC(=O)c2cc(C)nn2CC)nc2cc(C(N)=O)cc(OC3COC3)c21" .
a: 10.2

Next item in the queue.
q: In one line, give reported fold change (FC) of the entry "CCn1nc(C)cc1C(=O)Nc1nc2cc(C(N)=O)sc2n1CCCCn1c(NC(=O)c2cc(C)nn2CC)nc2cc(C(N)=O)cc(OCCCN3CCOCC3)c21" .
a: 0.64
